# MEASURED TARGET: HLA-B*5301 (human)
# ASSAY PROCEDURE: competition with 125I-B35con2, purified HLA
# EXPERIMENTAL SETUP: remark: other sources report otherwise
ASSAY ENDPOINT: IC50

What IC50 value was documented for this binder, YPNASLLI [CEA.102 YPNASLLI] ?
40 nM
